- Tested on: P. falciparum 3D7 growth, pLDH absorbance
- test-details: blood-stage malaria parasite growth potency – strain 3D7, dose response (AID 2305)
As shown below, each of these molecules has a reported IC50 value.
metric: IC50 (nM)

1) Cc1cccc(-c2nn(-c3ccccc3)c3[nH]c(=O)c(CN4CCSCC4)cc23)c1    1010
2) CN1CCN(CCCN(Cc2ccc(-c3cccc(CNC4CCCC4)c3)cc2)C(=O)Nc2ccccc2)CC1    1120
3) Cc1cnc(NC(=O)c2cn(-c3ccccc3)nc2-c2cccs2)s1    950
4) Cc1ccc(NC(=O)c2ccc(N3CCN(c4ccncc4)CC3)cc2)cc1F    740
5) COc1ccc(NC(=O)c2cn(-c3ccc(C(C)(C)C)cc3)nc2C)cc1N1CCN(C)CC1    950
6) CCc1ccc(O)c(-c2cc(C(=O)Nc3cccnc3)[nH]n2)c1    690
7) Cc1[nH]cc(Br)c(=O)c1-c1ccc(Oc2ccccc2)cc1    680
8) O=C(Nc1cccc(CN2CCCN(Cc3ccc(O)cc3)CC2)c1)c1ccc(-c2ccccc2)cc1    340
9) CNC(=O)c1ccccc1Nc1cc(Nc2cc(OC)ccn2)ncc1Cl    930
10) O=C(NCC1CC1)C1CCN(C(c2ccccc2)c2nc3ccccc3s2)CC1 (stereo not given)    1020
11) Cc1ccc(NC(=O)c2ccc(CN3CCCN(Cc4cccc(C#N)c4)CC3)cc2)cc1F    590
12) COc1cc(NC(=O)/C=C/c2cc(F)cc(F)c2F)cc(OCCN2CCC3(CC2)OCCO3)c1    270
13) CC(C)(C)C1CCC(C(=O)c2ccc3ccccc3c2O)CC1 (stereo not given)    750
14) Nc1c2ccccc2nc2cc(Cl)ccc12    710
15) Cc1cccc2[nH]c(-c3cccc(-c4cccc(NC(=O)N[C@@H]5C[C@H]5c5ccccc5)c4)c3)nc12    710
16) O=C(c1ccc(Cl)cc1)C1CCN(CCCOc2ccc3c(c2)CCNCC3)CC1    1150
17) CCn1c(-c2nonc2N)nc2c(-c3cccc(NC(=O)Nc4cccc(OC)c4)c3)ncc(OCCCN)c21    770
18) CCn1ccc2c(N3CCCC3=O)cc(C(=O)N[C@@H](Cc3ccccc3)[C@H](O)CNC(C)(C)CCCC(C)C)cc21    350
19) Cc1ccc(OC2CCN(CCCCC3(C)C(=O)Nc4ccccc43)CC2)cc1 (stereo not given)    740
20) Cc1nc(N)nc(N)c1CCCOc1ccccc1Cl    220
21) NCCCNc1ccnc2cc(Cl)ccc12    300
22) N#Cc1cccc(C(=O)NC2CCN(CCCCCNC(=O)/C=C/c3ccc(Cl)c(Cl)c3)CC2)c1    880
23) O=C(Nc1ccnc2ccccc12)NC1CCN(CCc2ccccc2)CC1    360
24) O=C(Nc1ccc(Cl)c(Cl)c1)N1CCC(NCc2cccc([N+](=O)[O-])c2)CC1    760
25) O=C(Cn1c(CCc2cccc(F)c2F)nc(=O)c2ccccc21)N(Cc1ccc(-c2ccc(C(F)(F)F)cc2)cc1)C1CCN(C2=NCCS2)CC1    1330
26) COc1cccc(OC)c1OCCCOc1c(C)nc(N)nc1N    460
27) O=C(Nc1ccc(Cn2ncc(N3CCCNCC3)c(Cl)c2=O)cc1)Nc1cccc(SC(F)(F)F)c1    680
28) N#Cc1ccc(CN2CCC(Oc3ccc(NC(=O)c4ccccc4)cc3Cl)CC2)cc1    1260
29) CCCCCCN1CCCN(Cc2ccc(C(=O)Nc3ccc(C)c(F)c3)cc2)CC1    330
30) CC(C)n1ncc2c(C(=O)N3CCCc4ccccc43)cc(-c3ccccc3)nc21    600
31) CC(C)C[C@H](NC(=O)[C@H](Cc1ccccc1)N(C[C@H](Cc1ccccc1)NC(=O)OC(C)(C)C)C(=O)C(F)(F)F)C(=O)NC1CCN(Cc2ccccc2)CC1    530
32) COc1ccc2c(NN=Cc3cccnc3)ccnc2c1    680
33) COc1cc(C=NNc2cc(C)nc3ccccc23)cc(OC)c1OC    730
34) Nn1c(=O)oc2ccc(Cl)cc2c1=O    190
35) COc1ccc(-c2cnc3[nH]cc(-c4ccc(CCC(=O)O)cc4)c3c2)cn1    770
36) NCc1cccc(-c2cccc(CN(C(=O)Nc3ccccc3)C3CCN(Cc4ccccc4)CC3)c2)c1    830
37) OCC1CCN(Cc2ccc(-c3ccc(-c4nc5ccc(C(F)(F)F)cc5[nH]4)s3)cc2)CC1    480
38) CC(C)(CNCc1ccc(Cl)cc1)c1nc(-c2ccc(Cl)c(O)c2)c(-c2ccncc2)[nH]1    480
39) CCCCCCSc1nnc(COc2cccc3ccccc23)n1-c1ccc(OC)cc1    50
40) CCC(NCc1ccc(-c2cncc(C(=O)NCC(C)C)c2)cc1)c1ccccc1 (stereo not given)    940

---

- System: P. falciparum 3D7 growth, pLDH absorbance
- test-details: blood-stage malaria parasite growth potency – strain 3D7, dose response (AID 2305)
metric: log10 of IC50 (log10 of the value in nM)

1) O=C(/C=C/c1ccc(C(F)(F)F)cc1)N1CCc2cc3nccc(N4CCN5CCC[C@H]5C4)c3cc21    3.18
2) Cc1cccc(C(=O)NC(NC(=S)Nc2cc(Cl)ccc2Cl)C(Cl)(Cl)Cl)c1 (stereo not given)    3.10
3) COc1ccccc1C(C)NCC(=O)Nc1cc(C(F)(F)F)ccc1Cl (stereo not given)    2.89
4) CCOc1ccc2nc(C)cc(NN=Cc3ccccc3[N+](=O)[O-])c2c1    1.48
5) O=C(NCCCN(Cc1ccc(F)cc1)c1ccccn1)C(c1cc2ccccc2o1)N1CCN(C(c2ccccc2)c2ccccc2)CC1 (stereo not given)    2.92
6) NCCNc1ccc([N+](=O)[O-])cc1C(=O)Nc1cccc(Cl)c1    3.10
7) CC(=O)c1ccc2cc(C(=O)NC3CCC(CCN4CCc5ccc(-c6noc(C)n6)cc5CC4)CC3)[nH]c2c1 (stereo not given)    2.98
8) O=S(=O)(Nc1ccc2nccc(N3CCNCC3)c2c1)c1ccc2oc3ccccc3c2c1    2.84
9) O=C(Nc1ccc(Cl)cc1)Nc1ccc2c(c1)N1CCN=C1S2    2.77
10) Cc1nc2nc(N)nc(N)c2c(C)c1Cc1ccc(Cl)cc1    2.34
11) CCN(CC)CCNc1nccc(N(C)c2ccc(NC(=O)Nc3cc(C(F)(F)F)ccc3F)cc2)n1    2.74
12) COc1ccc(-c2ccc(NC(=O)c3ccccc3)cc2)cc1CN1CCCN(C)CC1    2.96
13) Oc1ccccc1CN(CCCN(Cc1ccccn1)Cc1ccccc1O)Cc1ccccn1    3.03
14) CC(C)CN1CCCN(Cc2cccc(NC(=O)c3ccc(-c4ccccc4)cc3)c2)CC1    2.94
15) O=C(Nc1ccc(-c2oc(C(=O)NCCc3cccc(Cl)c3)cc2-c2ccncc2)cc1)Nc1cccc(Cl)c1    2.86
16) CCNc1cc(C)nc(Nc2ccc(NC(=O)c3ccco3)cc2)n1    3.04
17) CCOc1ccc(CNCCCCCCNCc2ccc(OCC)c3ccccc23)c2ccccc12    2.65
18) O=C(Nc1cccc(-c2cccc(CN3CCCC3)c2)c1)c1cccc(Cl)c1    3.07
19) COCCSc1ccc(CC(C)NCC(O)c2cccc(Cl)c2)cc1 (stereo not given)    2.88
20) OC(c1cc(C(F)(F)F)nc2c(F)cccc12)C1CCCCN1 (stereo not given)    2.89

---

- Tested on: P. falciparum 3D7 growth, pLDH absorbance
- test-details: blood-stage malaria parasite growth potency – strain 3D7, dose response (AID 2305)
metric: IC50 (nM)

1. O=C(Nc1ccc(CN2CCOCC2)cc1)c1ccc(-c2ccc(Cl)cc2)o1    860
2. CCCC(=O)Nc1ccc(OCCN(Cc2ccccc2OC(F)(F)F)c2ccc(C(F)(F)F)c(C#N)c2)cc1    790
3. Cc1ccc(CNC(=O)[C@H](Cc2ccccc2)Nc2cc(C)nc(Nc3ccccc3)n2)cc1    850
4. CNc1ccc(CNCc2cccc(-c3ccc(-c4nc5c(C)cccc5[nH]4)s3)c2)cc1    990
5. COc1cccc(OC2CCN(C(=O)c3cc(C(C)(C)C)nn3Cc3ccccc3)CC2)c1    250

---

As shown below, each of these compounds has a reported pIC50 value.
- Test system: P. falciparum 3D7 growth, pLDH absorbance
- test-details: blood-stage malaria parasite growth potency – strain 3D7, dose response (AID 2305)
pIC50: −log10 of the molar value.
metric: pIC50

1. O=C(/C=C/c1ccc2ccccc2c1)NC1CCC(CN2CCC(c3c[nH]c4ccccc34)CC2)CC1 (centres undefined)    6.14
2. CC(C)CNC(=O)c1ccnc(-c2ccc(CNCCCc3ccccc3)cc2)c1    6.14
3. COc1cccc(-c2c(C#N)c(N)nc3c2c(C)nn3-c2ccccc2)c1O    6.55
4. CCC1=C(C[C@H]2NCCc3cc(OC)c(OC)cc32)C[C@H]2c3cc(OC)c(OC)cc3CCN2C1    6.51
5. CC(Nc1nc(Nc2ccc(F)cc2)nc(SCC(N)=O)n1)c1ccccc1 (centres undefined)    6.30
6. COc1ccc2nccc(N3CCC(O)(CCNCc4ccc5c(n4)NC(=O)CO5)CC3)c2n1    6.09
7. COc1cccc(C2C(C(=O)Nc3ccccc3)=C(C)N=c3s/c(=C\c4ccc(O)cc4)c(=O)n32)c1 (centres undefined)    6.24
8. Nc1ncnc2cc(-c3cccc(NC(=O)Nc4ccccc4)c3)sc12    6.15
9. O=C(/C=C/c1ccc(Cl)c(Cl)c1)NCCCCCCN1CCN(C(=O)Nc2cc(Cl)nc(Cl)c2)CC1    6.11
